SUBJECT OF TEST: T1, full-length Sudan GP (GPFL) (Sudan virus (SUDV), UniProt Q7T9D9 33-650)
T1 construct: also called Sudan GPFL; GP(S)FL
T1 sequence: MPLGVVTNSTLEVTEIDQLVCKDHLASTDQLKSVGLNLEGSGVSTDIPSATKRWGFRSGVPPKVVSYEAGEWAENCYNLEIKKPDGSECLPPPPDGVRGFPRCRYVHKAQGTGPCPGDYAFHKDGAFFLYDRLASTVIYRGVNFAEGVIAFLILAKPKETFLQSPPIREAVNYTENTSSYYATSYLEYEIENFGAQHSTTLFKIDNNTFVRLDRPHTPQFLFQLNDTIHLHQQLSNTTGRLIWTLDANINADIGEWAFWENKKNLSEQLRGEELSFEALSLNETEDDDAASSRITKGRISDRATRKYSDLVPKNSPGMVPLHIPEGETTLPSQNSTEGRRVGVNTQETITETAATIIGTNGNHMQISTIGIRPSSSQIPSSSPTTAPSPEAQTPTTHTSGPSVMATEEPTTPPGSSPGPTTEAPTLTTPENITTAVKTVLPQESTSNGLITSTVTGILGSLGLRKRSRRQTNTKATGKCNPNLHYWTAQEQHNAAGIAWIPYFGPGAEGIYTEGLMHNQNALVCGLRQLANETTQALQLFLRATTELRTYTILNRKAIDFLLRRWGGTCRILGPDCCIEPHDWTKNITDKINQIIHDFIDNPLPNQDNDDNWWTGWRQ
EXPERIMENT: BLI, Fab, pH 7.4
pKd: −log10 of the molar value.

BINDER	pKd
Fab generated from 365S (Fab, V domains shown, also called 365S Fab) VH: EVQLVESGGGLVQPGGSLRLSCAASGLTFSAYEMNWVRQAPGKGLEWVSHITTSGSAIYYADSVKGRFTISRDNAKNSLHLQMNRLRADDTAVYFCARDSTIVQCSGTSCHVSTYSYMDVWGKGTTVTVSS VL: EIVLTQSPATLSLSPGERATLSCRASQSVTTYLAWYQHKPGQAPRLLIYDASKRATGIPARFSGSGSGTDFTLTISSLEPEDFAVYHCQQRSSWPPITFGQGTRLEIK	6.99
Fab generated from 377S (Fab, V domains shown) VH: QVQLVQSGAEVKKPGSSVKVSCKASGGTFSNYAINWVRQAPGQGLEWMGRTIPFLGLTNYAENFQARVTITADKSTGTSYMQLSSLRSEDTAVYFCAKAATSGWSPFDNWGQGTLVTVSS VL: EIVLTQSPGTLSLSPGERATLSCRASQSISSSYFGWYQQKPGQAPRLLIYGASRRAAGIPDRFSCSGSGTDFTLTISRLEPEDFGVYYCQQYGSSPTFGQGTKVEIK	7.44
Fab generated from 528S (Fab, V domains shown, also called 528S Fab) VH: EVQLAESGGGVVQPGRSLRLSCAASGFTFNSYGMHWVRQAPGKGLEWVAVIWDDGSKKYYADSVKGRFTISRDNSKNTLFLQMNSLRAEDTAVYYCARETIMFTFGEVIVSSRDNYYMDVWGKGTTVTVSS VL: EIVLTQSPATLSLSPGERATLSCRASQSVSNYLAWYQQKPGQAPRLLIYDASTRAIGIPARFSGVGSGTDFTLTISSLEPEDFAVYYCQQRSNWPPLTFGGGTKVEIK	8.04
